target: Glycogen synthase kinase-3 beta (Homo sapiens); experiment: blockers of GSK3B enzyme activity – biochemical, cell-free homogeneous, HTS, primary screen (AID 2097); conditions: GST-GSK3beta kinase, ADP-Glo luminescence, 60 min; at 10 µM; stronger effect = lower value;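 note: 0% = median DMSO wells and -100% = median GW8510 positive control wells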
Screen size: about 300,000 compounds; about 120 (0.04%) were called active. What follows is part of a selection rich in actives, with near analogues and random picks from the rest.
Documented activity score (negative = inhibition) across a set of molecules
Value expressed in %; do not type the unit.

Some entries whose results are on file:
                                   molecule                         system_under_test                    experimental_readout  unit_name  recorded_result
0  Cc1nc(C)c(-c2nnc(-c3cccc(S(=O)(=O)N(C)C)c3)o2)cc1C(=O)NN  Glycogen synthase kinase-3 beta (Homo sapiens)  activity score (negative = inhibition)          %            -3.56
1  COc1ccc(-n2nc(C(=O)NCC(=O)N3CCCCCC3)c3ccccc3c2=O)cc1Cl  Glycogen synthase kinase-3 beta (Homo sapiens)  activity score (negative = inhibition)          %           -0.439
2        Cc1nnc(NC(=O)CCC(=O)N2CCC(C)CC2)s1  Glycogen synthase kinase-3 beta (Homo sapiens)  activity score (negative = inhibition)          %            0.523
3  CCCc1ccc(OCC(O)CN2CCN(C(=O)OCC)CC2)cc1 (stereo not given)  Glycogen synthase kinase-3 beta (Homo sapiens)  activity score (negative = inhibition)          %              4.1
4  O=C(CCN1C(=O)c2ccccc2C1=O)NNC(=O)c1ccc(Cl)cc1Cl  Glycogen synthase kinase-3 beta (Homo sapiens)  activity score (negative = inhibition)          %             1.29
5  COc1ccc(C(=O)C2CCCN(C(=O)c3ccc(OC)o3)C2)c(C)c1 (stereo not given)  Glycogen synthase kinase-3 beta (Homo sapiens)  activity score (negative = inhibition)          %           0.0837

Query: State the recorded activity score (negative = inhibition) for this entry: Cc1ccc(OCCNC(=O)CNC(=O)c2ccc(C)c(C)c2)cc1
Result: -1.65

Query: Now this one: Cc1cc(Br)ccc1NC(=O)c1cnc(N2CCN(c3ccccn3)CC2)c2ccccc12
Result: -4.35

Query: Now this one: CSCCNCc1cn(-c2ccc(F)cc2F)nc1-c1ccccc1C
Result: 6.14

Query: Now this one: Cn1c(=O)[nH]c(=O)c2c1nc(N1CCN(C(c3ccccc3)c3ccccc3)CC1)n2CCO
Result: -22.6
